Target Or System: hMOR (Homo sapiens, UniProt P35372)
Sequence (P35372 whole entry): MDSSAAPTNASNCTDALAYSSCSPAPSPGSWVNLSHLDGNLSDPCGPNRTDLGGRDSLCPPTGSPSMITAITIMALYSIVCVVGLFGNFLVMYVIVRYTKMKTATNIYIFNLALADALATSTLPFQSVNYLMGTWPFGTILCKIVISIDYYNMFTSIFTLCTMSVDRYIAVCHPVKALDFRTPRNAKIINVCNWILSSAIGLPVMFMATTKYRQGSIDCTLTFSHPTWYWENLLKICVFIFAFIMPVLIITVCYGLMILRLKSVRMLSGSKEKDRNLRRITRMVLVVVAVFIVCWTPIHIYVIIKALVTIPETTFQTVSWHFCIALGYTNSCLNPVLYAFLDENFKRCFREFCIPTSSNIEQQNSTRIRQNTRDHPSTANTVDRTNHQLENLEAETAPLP
Assay Metric: Ki
Form field: result (number plus unit)

Prompt: Given CN(C)C(=O)C(CCN1C[C@H](O)CC1=CN1CCN(c2cccc(Cl)c2Cl)CC1)(c1ccccc1)c1ccccc1 (mixture of isomers) , report its Ki on hMOR (Homo sapiens, UniProt P35372).
Completion: 23.8 nM

Recorded values, source paper PMC11091828.
